Entries and their measured melting point follow.

Some compounds with recorded melting point:
Prompt: Requested read-out: melting point. Entry: COc1ccc(-c2c(Cl)c(CN3CCCC3=O)nc3sc4cnccc4c23)cc1OC [Example 36B]
Completion: 228 to 230 °C

Prompt: And then CCOC(=O)c1c(CCCCn2cncn2)nc2sc3c(c2c1-c1ccc(OC)c(OC)c1)CCN(C(=O)c1ccc(Cl)cc1)C3 [Example 28A] , what is it?
Completion: 165 to 166 °C

Prompt: And then CCOC(=O)c1c(CN(CC)CC)nc2sc3ncccc3c2c1-c1ccc(OC)c(OC)c1 [Example 64A] , what is it?
Completion: 156 to 157 °C

Prompt: And then COc1ccc(-c2c(Cl)c(CNC(C)(C)C)nc3sc4c(c23)CCN(C(=O)c2ccccc2)C4)cc1OC [Example 8B] , what is it?
Completion: 204 to 205 °C

Prompt: And then CCOC(=O)c1c(CN(CC)CC)nc2sc3c(c2c1-c1ccc(OC)c(OC)c1)CCN(S(=O)(=O)c1ccccc1)C3 [Example 9A] , what is it?
Completion: 161 to 162 °C

Prompt: And then CCOC(=O)c1c(CCc2c[nH]nn2)nc2sc3c(c2c1-c1ccc(OC)c(OC)c1)CCN(C(=O)c1ccccc1)C3 [Example 24A] , what is it?
Completion: 184 to 185 °C

Then there is this compound:
Prompt: Requested read-out: melting point. Entry: CCOC(=O)c1c(Cn2cncn2)nc2sc3c(c2c1-c1ccc(OC)c(OC)c1)CNCC3 [Example 63A]
Completion: 180 to 181 °C
